assay.system: HCV polymerase (NS5B) type 1b (Hepatitis C virus genotype 1b, UniProt P26663)
Construct: a region encoding NS5B (J Virol 1991 March, 65(3), 1105-13, 544 amino acids after deletion of 47 amino acids on the C-terminal); 6xHis (C); made in house; host or cells: Escherichia coli
Sequence (P26663 2420-2963): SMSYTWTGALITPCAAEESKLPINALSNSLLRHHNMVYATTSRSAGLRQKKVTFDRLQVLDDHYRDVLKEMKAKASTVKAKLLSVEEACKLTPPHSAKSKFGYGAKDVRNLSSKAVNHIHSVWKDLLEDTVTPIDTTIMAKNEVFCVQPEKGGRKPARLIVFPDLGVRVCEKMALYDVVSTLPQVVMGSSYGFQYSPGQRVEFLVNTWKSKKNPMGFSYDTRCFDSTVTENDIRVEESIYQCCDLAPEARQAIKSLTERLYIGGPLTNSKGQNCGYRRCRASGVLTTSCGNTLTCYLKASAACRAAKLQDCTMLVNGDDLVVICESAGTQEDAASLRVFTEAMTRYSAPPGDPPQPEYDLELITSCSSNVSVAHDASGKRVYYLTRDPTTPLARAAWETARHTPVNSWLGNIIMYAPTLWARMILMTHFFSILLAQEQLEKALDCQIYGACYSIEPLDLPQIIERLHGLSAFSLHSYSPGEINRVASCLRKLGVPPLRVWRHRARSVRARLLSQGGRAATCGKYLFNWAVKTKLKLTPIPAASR
assay.info: Assay of enzyme (HCV polymerase) inhibitory activity, type 1b enzyme
Type: biochemical, HCV BK strain (type 1b)
condition: HCV polymerase inhibitory activity (IC50), 1b, type 1b enzyme 0.5 μg/ml, 25° C., 60 min
Answer each item with its documented IC50.

Query block: Could you share which IC50 value was measured for CCc1cc(S(=O)(=O)N2CCN(C(C)=O)C[C@@H]2C(=O)NCc2ccc(C(C)C)cc2)ccc1OC [Example 236] ?
Result block: 100 to 1000 nM

Query block: Could you share which IC50 value was measured for CC(=O)N1CCN(S(=O)(=O)c2ccc(C(F)(F)F)cc2)[C@@H](C(=O)NCc2ccc(C(C)C)cc2)C1 [Example 176] ?
Result block: 100 to 1000 nM

Query block: Could you share which IC50 value was measured for CCC(CC)c1ccc(CNC(=O)C2CN(C(C)=O)CCN2S(=O)(=O)c2ccc(C(C)C)cc2)cc1 (stereo not shown) [Example 163] ?
Result block: 100 to 1000 nM

Query block: Could you share which IC50 value was measured for CCC(F)(F)c1ccc(CNC(=O)[C@H]2CN(c3cnc4ccccc4n3)CCN2S(=O)(=O)c2ccc(OC(F)(F)F)cc2)cc1 [Example 632] ?
Result block: < 100 nM

* * *

assay.system: HCV polymerase (NS5B) type 1b (Hepatitis C virus genotype 1b, UniProt P26663)
Construct: a region encoding NS5B (J Virol 1991 March, 65(3), 1105-13, 544 amino acids after deletion of 47 amino acids on the C-terminal); 6xHis (C); made in house; host or cells: Escherichia coli
assay.info: Assay of enzyme (HCV polymerase) inhibitory activity, type 1b enzyme
Assay type: biochemical, HCV BK strain (type 1b)
condition: HCV polymerase inhibitory activity (IC50), 1b, type 1b enzyme 0.5 μg/ml, 25° C., 60 min
pIC50: −log10 of the molar value.
attribute.measured: pIC50

Query block: HCV polymerase (NS5B) type 1b (Hepatitis C virus genotype 1b, UniProt P26663) / pIC50 / CCCc1ccc(CNC(=O)[C@H]2CN(c3ccc(C(=O)O)nc3)CCN2S(=O)(=O)c2ccc(OC(F)(F)F)cc2)cc1 [Example 631] : value?
Result block: > 7.00

Query block: HCV polymerase (NS5B) type 1b (Hepatitis C virus genotype 1b, UniProt P26663) / pIC50 / CC(C)c1ccc(CNC(=O)[C@H]2CN(C(=O)Cc3nnn[nH]3)CCN2S(=O)(=O)c2ccc(C(F)(F)F)cc2)cc1 [Example 261] : value?
Result block: 6.00 to 7.00

Query block: HCV polymerase (NS5B) type 1b (Hepatitis C virus genotype 1b, UniProt P26663) / pIC50 / CCCc1ccc(S(=O)(=O)N2CCN(c3nc(C)c(C(=O)O)s3)C[C@@H]2C(=O)NCc2ccc(C(C)C)cc2)s1 [Example 380] : value?
Result block: > 7.00

Query block: HCV polymerase (NS5B) type 1b (Hepatitis C virus genotype 1b, UniProt P26663) / pIC50 / CC(C)c1ccc(CNC(=O)[C@H]2CN(c3ccc(C(=O)O)nn3)CCN2S(=O)(=O)c2ccc(C(F)(F)F)cc2)cc1 [Example 376] : value?
Result block: > 7.00

Query block: HCV polymerase (NS5B) type 1b (Hepatitis C virus genotype 1b, UniProt P26663) / pIC50 / CCCc1ccc(CNC(=O)[C@H]2CN(C(C)=O)CCN2S(=O)(=O)c2ccc(OC(F)(F)F)cc2)cc1O [Example 624] : value?
Result block: 6.00 to 7.00

Query block: HCV polymerase (NS5B) type 1b (Hepatitis C virus genotype 1b, UniProt P26663) / pIC50 / CCCc1ccc(CNC(=O)[C@H]2CN(c3cnc(C(=O)O)cn3)CCN2S(=O)(=O)c2ccc(CCC)s2)cc1 [Example 438] : value?
Result block: > 7.00

Query block: HCV polymerase (NS5B) type 1b (Hepatitis C virus genotype 1b, UniProt P26663) / pIC50 / CCC(F)(F)c1ccc(CNC(=O)[C@H]2CN(c3nc(OC)ns3)CCN2S(=O)(=O)c2ccc(OC(F)(F)F)cc2)cc1 [Example 625] : value?
Result block: > 7.00
